Attribution: paper PMC10343686

- Test system: HCT116 cancer cell line
- Test: SRB assay of antiproliferative activity, HCT116
- Assay type: cell-based
- Condition Parameters: Homo sapiens, HCT-116, 48 h, mean ± standard error (n = 3)
Observation Type: GI50

Known GI50 results, listed for orientation:
COc1cccc(NC(=O)Nc2cc(-c3ccc4[nH]nc(OC)c4c3)ccn2)c1 [Compound 8d]: > 10 µM
O=C(Nc1cccc(C(F)(F)F)c1)Nc1cc(-c2ccc3cncnc3c2)ccn1 [Compound 4f]: > 10 µM
COc1n[nH]c2ccc(-c3ccnc(NC(=O)NCCc4ccccc4F)c3)cc12 [Compound 8j]: > 10 µM
O=C(Nc1cc(-c2ccc3cncnc3c2)ccn1)NC1CCCC1 [Compound 4j]: > 10 µM
O=C(Nc1cccc(F)c1)Nc1cc(-c2ccc3cncnc3c2)ccn1 [Compound 4b]: > 10 µM

Assign GI50 to the following record: COc1ccc(NC(=O)Nc2cc(-c3ccc4cncnc4c3)ccn2)cc1 [Compound 4e] > 10 µM

Assign GI50 to the following record: O=C(Nc1ccc(F)c(Cl)c1)Nc1cc(-c2ccc3cncnc3c2)ccn1 [Compound 4h] > 10 µM

Assign GI50 to the following record: O=C(NCCc1ccccc1)Nc1cc(-c2ccc3cncnc3c2)ccn1 [Compound 4l] > 10 µM

Assign GI50 to the following record: COc1n[nH]c2ccc(-c3ccnc(NC(=O)NCc4ccccc4)c3)cc12 [Compound 8h] 0.33 µM

====

Below is a list of entries, each paired with its recorded GI50 value.
- Test system: HCT116 cancer cell line
- Test: SRB assay of antiproliferative activity, HCT116
- Assay type: cell-based
- Condition Parameters: Homo sapiens, HCT-116, 48 h, mean ± standard error (n = 3)

Known GI50 results, listed for orientation:
O=C(NCCc1ccccc1F)Nc1cc(-c2ccc3cncnc3c2)ccn1 [Compound 4m]: > 10 µM
C=CCNC(=O)Nc1cc(-c2ccc3cncnc3c2)ccn1 [Compound 4i]: > 10 µM
O=C(NCc1ccccc1)Nc1cc(-c2ccc3cncnc3c2)ccn1 [Compound 4k]: > 10 µM
O=C(NCCc1ccc(F)cc1)Nc1cc(-c2ccc3cncnc3c2)ccn1 [Compound 4n]: > 10 µM
COc1ccc(NC(=O)Nc2cc(-c3ccc4[nH]nc(OC)c4c3)ccn2)cc1 [Compound 8e]: > 10 µM
COc1n[nH]c2ccc(-c3ccnc(NC(=O)NC4CCCC4)c3)cc12 [Compound 8g]: 1.25 µM

Assign GI50 to the following record: COc1n[nH]c2ccc(-c3ccnc(NC(=O)Nc4ccc(F)cc4)c3)cc12 [Compound 8c] 1.22 µM

Assign GI50 to the following record: COc1n[nH]c2ccc(-c3ccnc(NC(=O)NCCc4ccccc4)c3)cc12 [Compound 8i] 1.08 µM

Assign GI50 to the following record: O=C(Nc1cccc(OC(F)(F)F)c1)Nc1cc(-c2ccc3cncnc3c2)ccn1 [Compound 4g] > 10 µM

====

Below is a list of entries, each paired with its recorded melting point value.

Known melting point results, listed for orientation:
C=CCNC(=O)Nc1cc(-c2ccc3cncnc3c2)ccn1: 190 to 193 °C
O=C(NCc1ccccc1)Nc1cc(-c2ccc3cncnc3c2)ccn1: 221 to 224 °C
O=C(NCCc1ccccc1F)Nc1cc(-c2ccc3cncnc3c2)ccn1: 272 to 275 °C
COc1n[nH]c2ccc(-c3ccnc(NC(=O)NC4CCCC4)c3)cc12: 222 to 225 °C
O=C(Nc1cccc(C(F)(F)F)c1)Nc1cc(-c2ccc3cncnc3c2)ccn1: 328 to 331 °C
COc1cccc(NC(=O)Nc2cc(-c3ccc4[nH]nc(OC)c4c3)ccn2)c1: 230 to 233 °C
O=C(NCCc1ccccc1)Nc1cc(-c2ccc3cncnc3c2)ccn1: 260 to 263 °C
COc1n[nH]c2ccc(-c3ccnc(NC(=O)Nc4ccc(F)c(Cl)c4)c3)cc12: 300 to 305 °C

Assign melting point to the following record: `COc1n[nH]c2ccc(-c3ccnc(NC(=O)Nc4ccccc4)c3)cc12` 218 to 221 °C
